# assayMethodText: NCI Yeast Anticancer Drug Screen. Data for the rad50 strain (AID 155)
# conditionDescription: S. cerevisiae rad50 strain growth inhibition; at 5.0 µM (retest, dose inferred, filed as 0.5)
This is part of a sample that, as a whole, favours compounds with a hit. Of some 79,000 tested, about 15% had one in any assay. Activity calls are given as the source filed them. No stated cut-off is given here; in the data, active means growth inhibition above about 70%; inactive means the rest.
Please answer using one outcome listed in active, inactive

Solved cases (8 shown):
[
  {
    "compound": "C/C(O)=c1\\cc(C#N)c(=C(C#N)C#N)nc1C",
    "assignedClass": "inactive"
  },
  {
    "compound": "S=C(NCCc1ccccn1)N/N=C/c1ccccn1",
    "assignedClass": "inactive"
  },
  {
    "compound": "O=C(CN1CCCCC1)c1ccc(/C=C/c2ccc(Cl)cc2)cc1",
    "assignedClass": "inactive"
  },
  {
    "compound": "CN(C)C(=S)S(=O)(=O)CCCCS(=O)(=O)C(=S)N(C)C",
    "assignedClass": "inactive"
  },
  {
    "compound": "Cc1ccc(NCCN(C)C)c2c(=O)c3ccc(O)cc3sc12",
    "assignedClass": "inactive"
  },
  {
    "compound": "CC1(c2ccccc2)Nc2ccccc2C1=Nc1ccccc1 (centres undefined)",
    "assignedClass": "inactive"
  },
  {
    "compound": "C=C1C(=O)O[C@@H]2C[C@]3(C)CC[C@]4(C)[C@H](CC[C@@H]5[C@@]6(C)CCC(=O)C(C)(C)[C@@H]6CC[C@]54C)[C@H]3[C@H]12",
    "assignedClass": "inactive"
  },
  {
    "compound": "CCCn1cc2c(SC)nc(SC)nc2n1",
    "assignedClass": "inactive"
  }
]

Challenge: How was C/C(=N/O)C1CC(CCC2([N+](=O)[O-])CCC(C)(O)C(/C(C)=N/O)C2)([N+](=O)[O-])CCC1(C)O (centres undefined) classified in this test?
Response given: inactive

Challenge: How was O=S(O)CCCCCSSc1ccc(Cl)cc1 classified in this test?
Response given: inactive
